- Test system: Caco-2
- METHOD_NOTES: cell viability relative to DMSO; higher = less toxic
- ASSAY_SETUP: 72 h; 100 nM

COMPOUND: CC(C)=CCC[C@](C)(O[C@@H]1O[C@H](CO)[C@@H](O)[C@H](O)[C@H]1O)[C@H]1CC[C@]2(C)[C@@H]1[C@H](O)C[C@@H]1[C@@]3(C)CC[C@H](O[C@@H]4O[C@H](CO)[C@@H](O)[C@H](O)[C@H]4O[C@@H]4O[C@H](CO)[C@@H](O)[C@H](O)[C@H]4O)C(C)(C)[C@@H]3CC[C@]12C [ginsenoside-RD]
UNIT_ABBREVIATION: %
cell viability: 94.4

COMPOUND: c1cc(Cc2cnc[nH]2)ccn1 [immethridine]
UNIT_ABBREVIATION: %
cell viability: 95

COMPOUND: O=C(CCCCCN1C(=O)c2cccc3cccc(c23)C1=O)NO [scriptaid]
UNIT_ABBREVIATION: %
cell viability: 97.6

COMPOUND: CC1(C)Cc2c(-c3ccccc3)c(-c3ccc(Cl)cc3)c(CC(=O)O)n2C1 [licofelone]
UNIT_ABBREVIATION: %
cell viability: 87.5
